Provide the reported BAF3-FGFR4 pIC50 of each item.
target: Ba/F3-FGFR4-transfected cells (Homo sapiens, UniProt P22455); test: Ba/F3-FGFR4 cellular proliferation assay, Alamar Blue; type: cell-based
Sequence (P22455 whole entry, change not shown): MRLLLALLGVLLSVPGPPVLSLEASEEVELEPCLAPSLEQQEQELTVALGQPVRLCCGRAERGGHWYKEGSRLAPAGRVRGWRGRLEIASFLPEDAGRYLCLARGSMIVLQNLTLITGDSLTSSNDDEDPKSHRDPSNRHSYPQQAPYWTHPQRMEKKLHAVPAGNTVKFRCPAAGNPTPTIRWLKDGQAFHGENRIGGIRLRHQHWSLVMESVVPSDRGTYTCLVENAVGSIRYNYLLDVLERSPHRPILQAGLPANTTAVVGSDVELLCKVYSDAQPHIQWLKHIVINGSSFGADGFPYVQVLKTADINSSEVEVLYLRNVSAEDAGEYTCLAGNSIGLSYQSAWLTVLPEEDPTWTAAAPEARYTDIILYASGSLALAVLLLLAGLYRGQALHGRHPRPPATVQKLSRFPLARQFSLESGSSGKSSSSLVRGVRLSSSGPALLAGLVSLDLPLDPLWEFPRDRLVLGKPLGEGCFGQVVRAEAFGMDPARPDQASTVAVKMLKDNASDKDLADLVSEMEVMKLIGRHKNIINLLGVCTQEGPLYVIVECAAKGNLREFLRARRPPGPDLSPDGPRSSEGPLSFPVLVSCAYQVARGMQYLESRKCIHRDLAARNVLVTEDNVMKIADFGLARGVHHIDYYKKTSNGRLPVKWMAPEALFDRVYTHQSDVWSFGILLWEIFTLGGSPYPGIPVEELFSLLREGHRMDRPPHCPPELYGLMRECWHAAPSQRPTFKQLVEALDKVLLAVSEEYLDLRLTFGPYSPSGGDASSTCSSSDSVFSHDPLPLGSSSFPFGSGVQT

Please state, for each entry, its recorded BAF3-FGFR4 pIC50.
1. COc1cc(OC)cc(N(Cc2c[nH]nn2)c2ccc3ncc(-c4cnn(C)c4)nc3n2)c1
2. COc1cc(OC)c(F)c(N(Cc2n[nH]c(=O)o2)c2ccc3ncc(-c4cnn(C)c4)nc3n2)c1

6.57
6.01

Provide BAF3-FGFR4 pIC50 values for the following items, in order.
1. COc1cc(/N=c2\ccc3ncc(-c4cnn(C)c4)nc3n2Cc2cc(C)on2)c(F)c(OC)c1
2. COc1cc(OC)cc(N(CC2CC(O)C(=O)N2)c2ccc3ncc(-c4cnn(C)c4)nc3n2)c1 (stereo not shown)
3. COc1cc(/N=c2\ccc3ncc(-c4cnn(C)c4)nc3n2CC(C)(C)O)c(F)c(OC)c1
4. COc1cc(/N=c2\ccc3ncc(-c4cnn(C)c4)nc3n2CCNC(C)=O)c(F)c(OC)c1
5. COc1cc(OC)cc(N(Cc2nc(OC)cc(OC)n2)c2ccc3ncc(-c4cnn(C)c4)nc3n2)c1

1. 7.55
2. 5.80
3. 6.71
4. 7.14
5. 5.45
